assay: Pharmacokinetic experiment on rats; assay type: in vivo, SD rats; details: male, Sprague-Dawley, rat, plasma; Intravenous Injection into Rats (1 mg/kg)
attribute.measured: AUC(0-t)

For reference, reported AUC(0-t) for CC[C@@H](C)c1cccc([C@H](C)C2CC2)c1O stands at 124 ng·h/mL

For reference, reported AUC(0-t) for CC(C)c1cccc([C@H](C)C2CC2)c1O stands at 168 ng·h/mL

For reference, reported AUC(0-t) for CC[C@H](C)c1cccc([C@@H](C)C2CC2)c1O stands at 143 ng·h/mL

----------
test: Righting reflex experiment on mice with prodrugs; format: in vivo; details: both sexes, ICR, mouse, in vivo, intravenous; mice, prodrugs
Counter-ions that a name gives are not always drawn.
Below, each entry is listed with its recorded MTD.
Numbers only here, please. The scale is mg/kg.

Example entries begin here.
{"columns": ["compound", "unit.annotation", "reported.result"],
 "data": [
  ["C[C@H](c1cccc([C@H](C)C2CC2)c1OCOP(=O)(O)O)C1CC1 [Compound 76, phosphate]", "mg/kg", 80],
  ["CC(=O)Oc1ccccc1C(=O)OCOc1c(C(C)C)cccc1[C@H](C)C1CC1", "mg/kg", 50],
  ["CC(C)c1cccc([C@H](C)C2CC2)c1OCOC(=O)c1cccnc1", "mg/kg", 40],
  ["CC(C)c1cccc([C@H](C)C2CC2)c1OCOC(=O)[C@H](Cc1ccccc1)NC(=O)OC(C)(C)C", "mg/kg", 40],
  ["CC(C)C[C@H](N)C(=O)OCOc1c(C(C)C)cccc1[C@H](C)C1CC1 [Compound 60, trifluoroacetate]", "mg/kg", 50],
  ["C[C@H](c1cccc([C@@H](C)C2CC2)c1OCOP(=O)(O)O)C1CC1 [Compound 77, phosphate]", "mg/kg", 160],
  ["CC(C)c1cccc([C@H](C)C2CC2)c1OP(=O)(O)O", "mg/kg", 200],
  ["CC(C)c1cccc([C@H](C)C2CC2)c1OCOC(=O)C(NC(=O)OC(C)(C)C)C(C)C (stereo in doubt)", "mg/kg", 80]
]}

For reference, reported MTD for C[C@@H](c1cccc([C@H](C)C2CC2)c1OCOP(=O)(O)O)C1CC1 [Compound 75, phosphate] stands at 30

For reference, reported MTD for CC(C)c1cccc([C@H](C)C2CC2)c1OCOC(=O)[C@@H](N)Cc1ccccc1 [Compound 62, trifluoroacetate] stands at 30

For reference, reported MTD for CC(C)c1cccc([C@@H](C)C2CC2)c1OCOP(=O)([O-])[O-].[Na+].[Na+] stands at 200

----------
test system: ICR mice; test: Righting reflex experiment on mice with prodrugs; assay type: in vivo; conditions: mice, intravenous injection, prodrugs
Where a name gives a salt, the structure may show the parent alone.
Binning rule for recorded Anesthesia induction time: low = under 70 s, mid = from 70 s up to 100 s, high = 100 s and over

Field: example entries. Status: answers known.
{"columns": ["compound", "discrete.label"],
 "data": [
  ["C[C@H](c1cccc([C@@H](C)C2CC2)c1OCOP(=O)(O)O)C1CC1 [Compound 77, phosphate]", "high"],
  ["CC[C@@H](C)c1cccc([C@H](C)C2CC2)c1OCOP(=O)([O-])[O-].[Na+].[Na+]", "low"],
  ["C[C@@H](c1cccc([C@H](C)C2CC2)c1OCOP(=O)(O)O)C1CC1 [Compound 75, phosphate]", "high"],
  ["C[C@H](c1cccc([C@H](C)C2CC2)c1OCOP(=O)(O)O)C1CC1 [Compound 76, phosphate]", "high"],
  ["CC(C)c1cccc([C@H](C)C2CC2)c1OP(=O)(O)O", "high"]
]}

Inquiry: Record CC(C)c1cccc([C@H](C)C2CC2)c1OCOC(=O)[C@H](Cc1ccccc1)NC(=O)OC(C)(C)C — which class?
Reply text: low

Inquiry: Record CC[C@H](C)c1cccc([C@H](C)C2CC2)c1OCOP(=O)([O-])[O-].[Na+].[Na+] — which class?
Reply text: mid

Inquiry: Record CC(C)C[C@H](N)C(=O)OCOc1c(C(C)C)cccc1[C@H](C)C1CC1 [Compound 60, trifluoroacetate] — which class?
Reply text: low

Inquiry: Record CC(C)c1cccc([C@@H](C)C2CC2)c1OCOP(=O)([O-])[O-].[Na+].[Na+] — which class?
Reply text: mid

Inquiry: Record CC(C)c1cccc(C(C)C)c1O [Propofol, reference compound] — which class?
Reply text: low
